The reported numbers originate from patent US20210388087A1.

TESTED_SYSTEM: T1, Human CD3eg linker (human)
T1 construct: single-chain construct; also called recombinant human CD3
T1 chain: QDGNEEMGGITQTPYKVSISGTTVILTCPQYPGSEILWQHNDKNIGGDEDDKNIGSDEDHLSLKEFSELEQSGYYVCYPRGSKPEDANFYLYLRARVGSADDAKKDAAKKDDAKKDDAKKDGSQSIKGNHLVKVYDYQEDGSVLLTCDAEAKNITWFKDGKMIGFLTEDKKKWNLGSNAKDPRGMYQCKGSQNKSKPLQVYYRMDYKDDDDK
TEST_NAME: SPR, vs unmutated H183/L072
Below is a list of entries, each paired with its recorded fold change of affinity value.
# output: bare number, implied unit fold

Worked set:
{"BINDER": "dBBDu183H D101R/dBBDu072L (antibody, name in Kabat numbering, V domains shown) VH: QVQLVESGGGLVQPGRSLRLSCAASGFTFSNAWMHWVRQAPGKGLEWVAQIKDKGNAYAAYYAPSVKGRFTISRDDSKNSIYLQMNSLKTEDTAVYYCHYVHYASASTVLPAFGVRAWGQGTTVTVSS VL: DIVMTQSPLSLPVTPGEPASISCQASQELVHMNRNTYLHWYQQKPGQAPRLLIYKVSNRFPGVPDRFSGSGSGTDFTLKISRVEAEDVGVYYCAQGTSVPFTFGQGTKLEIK", "fold change of affinity, fold": 0}
{"BINDER": "dBBDu183H Y94W/dBBDu072L (antibody, name in Kabat numbering, V domains shown) VH: QVQLVESGGGLVQPGRSLRLSCAASGFTFSNAWMHWVRQAPGKGLEWVAQIKDKGNAYAAYYAPSVKGRFTISRDDSKNSIYLQMNSLKTEDTAVYYCHWVHYASASTVLPAFGVDAWGQGTTVTVSS VL: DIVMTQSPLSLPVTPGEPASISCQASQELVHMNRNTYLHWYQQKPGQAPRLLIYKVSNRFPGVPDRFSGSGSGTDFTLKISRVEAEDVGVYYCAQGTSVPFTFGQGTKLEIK", "fold change of affinity, fold": 0.4}
{"BINDER": "dBBDu183H D101T/dBBDu072L (antibody, name in Kabat numbering, V domains shown) VH: QVQLVESGGGLVQPGRSLRLSCAASGFTFSNAWMHWVRQAPGKGLEWVAQIKDKGNAYAAYYAPSVKGRFTISRDDSKNSIYLQMNSLKTEDTAVYYCHYVHYASASTVLPAFGVTAWGQGTTVTVSS VL: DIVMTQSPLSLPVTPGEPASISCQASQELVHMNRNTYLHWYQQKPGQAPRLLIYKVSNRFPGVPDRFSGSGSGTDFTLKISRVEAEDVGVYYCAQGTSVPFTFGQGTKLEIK", "fold change of affinity, fold": 0.2}
{"BINDER": "dBBDu183H S62E/dBBDu072L (antibody, name in Kabat numbering, V domains shown) VH: QVQLVESGGGLVQPGRSLRLSCAASGFTFSNAWMHWVRQAPGKGLEWVAQIKDKGNAYAAYYAPEVKGRFTISRDDSKNSIYLQMNSLKTEDTAVYYCHYVHYASASTVLPAFGVDAWGQGTTVTVSS VL: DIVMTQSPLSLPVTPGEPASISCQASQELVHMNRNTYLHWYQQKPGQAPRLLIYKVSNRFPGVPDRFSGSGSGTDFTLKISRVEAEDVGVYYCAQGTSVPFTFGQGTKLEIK", "fold change of affinity, fold": 1.2}

Query block: Give recorded fold change of affinity. dBBDu183H T100bE/dBBDu072L (antibody, name in Kabat numbering, V domains shown) VH: QVQLVESGGGLVQPGRSLRLSCAASGFTFSNAWMHWVRQAPGKGLEWVAQIKDKGNAYAAYYAPSVKGRFTISRDDSKNSIYLQMNSLKTEDTAVYYCHYVHYASASEVLPAFGVDAWGQGTTVTVSS VL: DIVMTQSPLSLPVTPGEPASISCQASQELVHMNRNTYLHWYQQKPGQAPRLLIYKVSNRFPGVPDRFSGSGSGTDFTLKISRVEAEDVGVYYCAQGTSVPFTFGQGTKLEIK
Result block: 0.6

Query block: Give recorded fold change of affinity. dBBDu183H K64V/dBBDu072L (antibody, name in Kabat numbering, V domains shown) VH: QVQLVESGGGLVQPGRSLRLSCAASGFTFSNAWMHWVRQAPGKGLEWVAQIKDKGNAYAAYYAPSVVGRFTISRDDSKNSIYLQMNSLKTEDTAVYYCHYVHYASASTVLPAFGVDAWGQGTTVTVSS VL: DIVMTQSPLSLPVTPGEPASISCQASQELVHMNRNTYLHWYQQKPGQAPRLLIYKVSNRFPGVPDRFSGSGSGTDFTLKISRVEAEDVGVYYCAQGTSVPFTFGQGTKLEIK
Result block: 1.1

Query block: Give recorded fold change of affinity. dBBDu183H A98D/dBBDu072L (antibody, name in Kabat numbering, V domains shown) VH: QVQLVESGGGLVQPGRSLRLSCAASGFTFSNAWMHWVRQAPGKGLEWVAQIKDKGNAYAAYYAPSVKGRFTISRDDSKNSIYLQMNSLKTEDTAVYYCHYVHYDSASTVLPAFGVDAWGQGTTVTVSS VL: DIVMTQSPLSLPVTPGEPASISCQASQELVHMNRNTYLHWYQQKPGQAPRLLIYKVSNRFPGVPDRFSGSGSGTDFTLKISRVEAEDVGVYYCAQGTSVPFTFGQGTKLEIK
Result block: 0.4

Query block: Give recorded fold change of affinity. dBBDu183H S99F/dBBDu072L (antibody, name in Kabat numbering, V domains shown) VH: QVQLVESGGGLVQPGRSLRLSCAASGFTFSNAWMHWVRQAPGKGLEWVAQIKDKGNAYAAYYAPSVKGRFTISRDDSKNSIYLQMNSLKTEDTAVYYCHYVHYAFASTVLPAFGVDAWGQGTTVTVSS VL: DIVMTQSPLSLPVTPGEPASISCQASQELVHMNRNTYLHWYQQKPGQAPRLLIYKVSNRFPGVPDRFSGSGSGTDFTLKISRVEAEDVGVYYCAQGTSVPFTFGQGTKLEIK
Result block: 1

Query block: Give recorded fold change of affinity. dBBDu183H P61E/dBBDu072L (antibody, name in Kabat numbering, V domains shown) VH: QVQLVESGGGLVQPGRSLRLSCAASGFTFSNAWMHWVRQAPGKGLEWVAQIKDKGNAYAAYYAESVKGRFTISRDDSKNSIYLQMNSLKTEDTAVYYCHYVHYASASTVLPAFGVDAWGQGTTVTVSS VL: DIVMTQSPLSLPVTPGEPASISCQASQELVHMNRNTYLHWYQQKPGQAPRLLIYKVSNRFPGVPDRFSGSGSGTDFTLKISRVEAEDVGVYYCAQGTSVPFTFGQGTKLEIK
Result block: 1.8

Query block: Give recorded fold change of affinity. dBBDu183H A100Y/dBBDu072L (antibody, name in Kabat numbering, V domains shown) VH: QVQLVESGGGLVQPGRSLRLSCAASGFTFSNAWMHWVRQAPGKGLEWVAQIKDKGNAYAAYYAPSVKGRFTISRDDSKNSIYLQMNSLKTEDTAVYYCHYVHYASYSTVLPAFGVDAWGQGTTVTVSS VL: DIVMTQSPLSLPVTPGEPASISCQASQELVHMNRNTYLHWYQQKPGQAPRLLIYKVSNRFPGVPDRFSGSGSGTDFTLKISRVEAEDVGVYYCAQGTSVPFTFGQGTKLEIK
Result block: 1.7
